measuredTarget: Lytic switch protein BZLF1 (Epstein-Barr virus (strain B95-8))
protocol: EBV Zta DNA binding inhibitor potency, late-stage follow-up, counter-screen for EBNA-1 inhibitor project, biochemical, fluorescence polarization, dose response, assay provider (AID 493077)
experimentalSetup: purified Zta, Cy5-ZRE DNA
Calls of active or inactive are those of the source.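 Rule for the calls: active = Zta binding inhibitor with IC50 at or below 10 µM; inactive = IC50 above 10 µM.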
# key: entry, value: IC50

These solved cases illustrate the format of a correct answer.
1) Cc1cc(C(=O)CSc2nnnn2-c2ccccc2)c(C)n1C	> 111 µM (inactive)
2) COc1ccc(C(=O)Nc2nc3ccc(S(C)(=O)=O)cc3s2)cc1	> 111 µM (inactive)
3) Cc1cc(C(=O)CSc2nnnn2-c2cccc(F)c2)c(C)n1CC1CCCO1 (stereo unspecified)	> 111 µM (inactive)

Summary for this compound, "CS(=O)(=O)c1ccc2nc(NC(=O)c3cccc(F)c3)sc2c1" : IC50 is > 111 µM (inactive)

Value of IC50 reported for the compound "COc1cccc2sc(NC(=O)c3ccc(C)c(C)c3)nc12" is > 111 µM (inactive)

"COc1ccc2sc(NC(=O)c3ccc(C)c(C)c3)nc2c1" has a reported IC50 of > 111 µM (inactive)

response.value for "Cc1ccc(C(=O)Nc2nc3cc(F)ccc3s2)cc1C" (field: IC50) = > 111 µM (inactive)

Record Cc1cccc(-n2nnnc2SCC(=O)c2cc(C)n(CC3CCCO3)c2C)c1 (stereo unspecified) . Reported IC50: > 111 µM (inactive)

For this compound ( Cc1ccccc1-n1nnnc1SCC(=O)c1cc(C)n(CC2CCCO2)c1C (stereo unspecified) ), measured IC50 is > 111 µM (inactive)

Notebook: "Cc1ccc(C(=O)Nc2nc3ccc(Br)cc3s2)cc1C" , IC50 read as > 111 µM (inactive)

Reported IC50 ( COc1ccc(-n2nnnc2SCC(=O)c2cc(C)n(CC3CCCO3)c2C)cc1 (stereo unspecified) ) = > 111 µM (inactive)
